# systemTested: panel of other nonopioid drug targets
# protocolDetails: PDSP screening panel
# testContext: read-out: Ki at nonopioid drug targets
reportedProperty: Ki

Write down Ki measured for item CC[C@@H]1CN2CC[C@@]3(O)C(=Nc4cccc(OC)c43)[C@@H]2C[C@@H]1/C(=C\OC)C(=O)OC [Compound 2]
> 10 µM
